# testMethodNotes: collision cross section of modified peptide (TIMS, N2, iRT-aligned); higher = larger / more extended gas-phase ion
# condition: charge state: 2; modification: Glutarylation
recordedMetric: collision cross section (Å²)
State the answer as a number, implicitly in Å².

Problem: Quick check: collision cross section of IQQELQTAKK [_IQQELQTAK(Gluratylation)K_] ?
Result: 388.2

Problem: Quick check: collision cross section of IHNAENIQPGEQKYEYK [_IHNAENIQPGEQK(Gluratylation)YEYK_] ?
Result: 490.8

More entries:
Problem: Quick check: collision cross section of LGNDFHTNKR [_LGNDFHTNK(Gluratylation)R_] ?
Result: 382

Problem: Quick check: collision cross section of STGLELETPSLVPVKK [_STGLELETPSLVPVK(Gluratylation)K_] ?
Result: 457.67

Problem: Quick check: collision cross section of VDVEVPDVSLEGPEGKLK [_VDVEVPDVSLEGPEGK(Gluratylation)LK_] ?
Result: 465.13

Problem: Quick check: collision cross section of FDDTNPEKEEAK [_FDDTNPEK(Gluratylation)EEAK_] ?
Result: 403.46

Problem: Quick check: collision cross section of IISSIEQKEENK [_IISSIEQK(Gluratylation)EENK_] ?
Result: 411.03

Problem: Quick check: collision cross section of FSAYIKNSNPALNDNLEK [_FSAYIK(Gluratylation)NSNPALNDNLEK_] ?
Result: 487.96

Problem: Quick check: collision cross section of PASGAGAGAGAGKR [_PASGAGAGAGAGK(Gluratylation)R_] ?
Result: 357.87

Problem: Quick check: collision cross section of VDIDVPDVNIEGPDAKLK [_VDIDVPDVNIEGPDAK(Gluratylation)LK_] ?
Result: 479.85

Problem: Quick check: collision cross section of DHLSDKESK [_DHLSDK(Gluratylation)ESK_] ?
Result: 353.36
